Origin of the recorded values: PubChem BioAssay AID2149

Measured inhibition of individual entries
# Test system: tRNA 2'-phosphotransferase TPT1 [Candida albicans SC5314]
# assay text: tRNA 2'-phosphotransferase enzyme inhibition – biochemical, fluorescence polarization, triplicate, confirmation (AID 2149)
# experimental context: recombinant caTPT1, fluorescence polarization, RNase T1 coupled; at 5 µM; hits give high values
Out of some 2,400 compounds screened, about 1,800 (75%) were called active. The set was probably picked from earlier hits. A selection follows.
Write down the numeric answer in % and omit the unit.

The cases that follow already have their inhibition on record.
{"molecule": "NNC(=O)c1oc2nc(-c3ccccc3)cc(-c3ccco3)c2c1N", "value units": "%", "recorded result": 31.5}
{"molecule": "CCC(c1nnnn1Cc1ccco1)N(Cc1cc2cc(OC)ccc2[nH]c1=O)C1CCCCC1 (stereo not drawn)", "value units": "%", "recorded result": 13.7}

Consider now this further molecule.
Problem: Which inhibition is reported with tRNA 2'-phosphotransferase TPT1 [Candida albicans SC5314] for this entry: COc1cc(/C=C(\C#N)c2nc3c(s2)CC(C)CC3)ccc1O (stereo not drawn) ?
Result: 130
